test: Cytotoxicity, MTT reduction assay, HELA cells; type: cell-based; conditions: human; MTT, 48 h, up to 50 μM; read-out: Cytotoxicity Hela Cells GI50
Bridge positions count the residues as written; N and C are the ends. Square brackets hold non-standard residues; d marks the D form. Peptide text beside a SMILES is read from it. Lys(iPr) = CC(C)NCCCC[C@H](N)C(=O)O; Dab = NCC[C@H](N)C(=O)O

{"molecule": "CC(C)NCCCC[C@@H]1NC(=O)[C@H](CCC(N)=O)NC(=O)[C@H](Cc2ccc(O)cc2)NC(=O)[C@@H]2CSSC[C@H](NC(=O)[C@H](C)NC(=O)[C@H](Cc3c[nH]cn3)NC(=O)[C@H](Cc3ccc(O)cc3)NC(=O)[C@@H]3CCCN3C(=O)[C@H]3CCCN3C1=O)C(=O)N[C@@H](CO)C(=O)N[C@@H](C)C(=O)N[C@H](Cc1ccc(O)cc1)C(=O)N[C@@H](CCN)C(=O)N[C@@H](CCCNC(=N)N)C(=O)N[C@@H](Cc1ccc(O)cc1)C(=O)N2 [Ex. 3] (cyclo(YHACSA[dY][Dab]RYCYQ[Lys(iPr)][dP]P); disulfide 4-11)", "GI50 at 48 h": "> 50 µM"}
